- Test system: MHH-CALL-3;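 note: ALL cell lines in 384-well plates, five doses spanning 10,000-fold, each plate scaled between vehicle and 100 µmol/L benzalkonium chloride controls, sDSS an adapted area-under-curve metric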
- Assay notes: selective drug sensitivity score (sDSS, relative to normal bone marrow) (sDSS (score)); higher = more potent and effective on the cell line relative to normal bone marrow cells
- Condition description: 72 h
Mark y for reported selective drug sensitivity score of 2 or greater; mark n for anything smaller.

[
  {
    "Compound": "COc1cc([C@@H]2c3cc4c(cc3[C@@H](O[C@@H]3O[C@@H]5CO[C@@H](C)O[C@H]5[C@H](O)[C@H]3O)[C@H]3COC(=O)[C@H]23)OCO4)cc(OC)c1O [Etoposide] (top concentration 10000 nM)",
    "Assigned category": "y"
  },
  {
    "Compound": "CON(C)C(=O)N1N=C(c2cc(F)ccc2F)S[C@@]1(CCCN)c1ccccc1 [Filanesib] (top concentration 1000 nM)",
    "Assigned category": "y"
  },
  {
    "Compound": "CCC1(c2ccc(N)cc2)CCC(=O)NC1=O (stereo unspecified) [Aminoglutethimide] (top concentration 10000 nM)",
    "Assigned category": "n"
  },
  {
    "Compound": "COc1cccc2c1C(=O)c1c(O)c3c(c(O)c1C2=O)C[C@@](O)(/C(CO)=N/NC(=O)CCCCCN1C(=O)C=CC1=O)C[C@@H]3O[C@H]1C[C@H](N)[C@H](O)[C@H](C)O1 [Aldoxorubicin] (top concentration 1000 nM)",
    "Assigned category": "y"
  },
  {
    "Compound": "Cc1nc2cccc(N)c2c(=O)n1C1CCC(=O)NC1=O (stereo unspecified) [Avadomide (CC122)] (top concentration 10000 nM)",
    "Assigned category": "n"
  },
  {
    "Compound": "CN1CCC(CNc2ccc3ncc(-c4cccc(OC(F)(F)F)c4)n3n2)CC1 [SGI-1776] (top concentration 10000 nM)",
    "Assigned category": "n"
  },
  {
    "Compound": "CCn1c(-c2nonc2N)nc2c(C#CC(C)(C)O)ncc(OC[C@H]3CCCNC3)c21 (top concentration 10000 nM)",
    "Assigned category": "y"
  },
  {
    "Compound": "CC(O)c1cc(C(=O)N[C@@H](C)Cn2ccc(-c3ccc(C#N)c(Cl)c3)n2)n[nH]1 (stereo partly specified) [ODM-201] (top concentration 2500 nM)",
    "Assigned category": "n"
  },
  {
    "Compound": "Cn1ncc(Cl)c1-c1cc(C(=O)N[C@H](CN)Cc2ccc(F)c(F)c2)oc1Cl [Uprosertib] (top concentration 10000 nM)",
    "Assigned category": "n"
  },
  {
    "Compound": "Cc1c(-c2c(-c3ccc(F)o3)sc3ncnc(O[C@H](Cc4ccccc4OCc4ccnn4CC(F)(F)F)C(=O)O)c23)ccc(OCCN2CCN(C)CC2)c1Cl (top concentration 1000 nM)",
    "Assigned category": "n"
  },
  {
    "Compound": "CO[C@H]1C[C@@H]2CC[C@@H](C)[C@@](O)(O2)C(=O)C(=O)N2CCCC[C@H]2C(=O)O[C@H]([C@H](C)C[C@@H]2CC[C@@H](O)[C@H](OC)C2)CC(=O)[C@H](C)/C=C(\\C)[C@@H](O)[C@@H](OC)C(=O)[C@H](C)C[C@H](C)/C=C/C=C/C=C/1C [Sirolimus] (top concentration 100 nM)",
    "Assigned category": "y"
  }
]
